Taken from ChEMBL document CHEMBL6127088.

Tested on: Enterococcus faecalis
methodSummary: Antimicrobial activity against vancomycin-resistant Enterococcus faecalis ATCC 51299 assessed as minimum inhibitory concentration incubated for 18 hrs by broth microdilution method
Type: functional
measuredQuantity: log10(MIC) (log10 of the value in µg/mL)

| structureString | log10(MIC) |
| --- | --- |
| Fc1ccc(-c2csc(Nc3ccc(C(F)(F)F)cc3Cl)n2)c(F)c1 | 2.41 |
| Fc1ccc(-c2csc(Nc3ccccc3C(F)(F)F)n2)c(F)c1 | 0.60 |
| COc1cc(Nc2nc(-c3ccc(F)cc3F)cs2)ccc1C(F)(F)F | 0.30 |
| C/C(=N\NC1=NCCN1)c1csc(Nc2cc(F)cc(C(F)(F)F)c2)n1 | 1.20 |
| C/C(=N\Nc1ccc(C(=O)O)cn1)c1csc(Nc2cc(F)cc(C(F)(F)F)c2)n1 | 2.11 |
| Fc1ccc(-c2csc(Nc3cc(Cl)cc(C(F)(F)F)c3)n2)c(F)c1 | 0.30 |
| Fc1cc(Nc2nc(-c3cccnc3)cs2)cc(C(F)(F)F)c1 | 2.41 |
| Cn1cc(-c2csc(Nc3cc(F)cc(C(F)(F)F)c3)n2)cn1 | 2.41 |
| C/C(=N\NC(=N)N)c1csc(Nc2cc(F)cc(C(F)(F)F)c2)n1 | 0.90 |
| COc1cc(Nc2nc(-c3ccc(F)cc3F)cs2)cc(C(F)(F)F)c1 | 2.41 |
| C/C(=N\Nc1ncccc1Cl)c1csc(Nc2cc(F)cc(C(F)(F)F)c2)n1 | 0.60 |
| Fc1ccc(-c2csc(Nc3cccnc3)n2)c(F)c1 | 2.41 |
| Fc1cc(Nc2nc(C3CCOCC3)cs2)cc(C(F)(F)F)c1 | 2.11 |
| Fc1ccc(-c2csc(Nc3ccc(C(F)(F)F)cc3F)n2)c(F)c1 | 2.41 |
| Oc1cc(Nc2nc(-c3ccc(F)cc3F)cs2)cc(C(F)(F)F)c1 | 2.41 |
| Fc1ccc(-c2csc(Nc3ccc(Cl)c(C(F)(F)F)c3)n2)c(F)c1 | 0.30 |
| Fc1ccc(-c2csc(Nc3ccncc3)n2)c(F)c1 | 1.51 |
| Oc1ccc(Nc2nc(-c3ccc(F)cc3F)cs2)cc1C(F)(F)F | 0.30 |
| Fc1ccc(-c2csc(Nc3cccc(C(F)(F)F)c3)n2)c(F)c1 | 0.30 |
| COc1ccc(Nc2nc(-c3ccc(F)cc3F)cs2)cc1C(F)(F)F | 0.90 |
| Fc1cc(Nc2nc(-c3cc4ccccc4o3)cs2)cc(C(F)(F)F)c1 | 0.30 |
| CC(C)(C)c1csc(Nc2cc(F)cc(C(F)(F)F)c2)n1 | 0.90 |
| C/C(=N\Nc1cc(O)ncn1)c1csc(Nc2cc(F)cc(C(F)(F)F)c2)n1 | 2.41 |
| O=C(Nc1ccccn1)c1csc(Nc2cc(F)cc(C(F)(F)F)c2)n1 | 2.41 |
| Fc1cc(Nc2nc(-c3ccncc3)cs2)cc(C(F)(F)F)c1 | 2.41 |
| Fc1ccc(-c2csc(Nc3ccccn3)n2)c(F)c1 | 2.41 |
| C/C(=N\Nc1ccc(Cl)nn1)c1csc(Nc2cc(F)cc(C(F)(F)F)c2)n1 | 2.41 |
| Fc1ccc(-c2csc(Nc3c(Cl)cc(C(F)(F)F)cc3Cl)n2)c(F)c1 | 2.41 |
| C/C(=N\Nc1ccccn1)c1csc(Nc2cc(F)cc(C(F)(F)F)c2)n1 | 0.00 |
| Fc1ccc(-c2csc(Nc3cc(C(F)(F)F)cc(C(F)(F)F)c3)n2)c(F)c1 | 0.60 |
| Fc1cc(Nc2nc(-c3ccco3)cs2)cc(C(F)(F)F)c1 | 0.90 |
| Fc1cc(Nc2nc(C3CC3)cs2)cc(C(F)(F)F)c1 | 0.90 |
| C/C(=N\Nc1ccccc1)c1csc(Nc2cc(F)cc(C(F)(F)F)c2)n1 | 1.20 |
| C/C(=N\Nc1cnccn1)c1csc(Nc2cc(F)cc(C(F)(F)F)c2)n1 | 2.11 |
| Fc1cc(Nc2nc(-c3cccs3)cs2)cc(C(F)(F)F)c1 | 0.90 |
| Fc1cc(Nc2nc(-c3ccccn3)cs2)cc(C(F)(F)F)c1 | 1.81 |
| Cc1cc(C(F)(F)F)ccc1Nc1nc(-c2ccc(F)cc2F)cs1 | 2.41 |
| Fc1ccc(-c2csc(Nc3ccc(C(F)(F)F)cc3)n2)c(F)c1 | 0.60 |
| Fc1cc(Nc2nc(-c3ccc(F)cc3F)cs2)cc(C(F)(F)F)c1 | 0.30 |
| CS(=O)(=O)c1ccc(Nc2nc(-c3ccc(F)cc3F)cs2)cc1 | 2.41 |
| Cc1ccc(C(F)(F)F)cc1Nc1nc(-c2ccc(F)cc2F)cs1 | 2.41 |
| CCOc1ccc(Nc2nc(-c3ccc(F)cc3F)cs2)cc1C(F)(F)F | 0.60 |
